I'd appreciate it if you could supply pIC50 values for the items below.
target: type 1 5α-reductase (Homo sapiens); construct: Preparation of Human Prostatic and Scalp 5α-reductases; from tissue; host or cells: human scalp (crude nuclear pellet of the homogenate); assay: 5α-reductase assay, type 1 (human scalp homogenate), inhibition studies; format: biochemical
Sequence (P18405 whole entry): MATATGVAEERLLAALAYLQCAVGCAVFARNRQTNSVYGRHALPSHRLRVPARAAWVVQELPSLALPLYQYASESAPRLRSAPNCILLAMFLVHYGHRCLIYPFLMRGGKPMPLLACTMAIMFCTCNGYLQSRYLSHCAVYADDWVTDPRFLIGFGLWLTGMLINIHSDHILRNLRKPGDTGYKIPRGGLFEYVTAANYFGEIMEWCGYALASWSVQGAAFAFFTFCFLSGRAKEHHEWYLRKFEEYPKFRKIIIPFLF
Answers are plain numbers, as −log10 of the molar value.

Reference set, count: 3
INSERT INTO measurements (molecule, target_or_test_system, numeric_readout) VALUES
  ('Cc1ccccc1NC(=O)[C@H]1CC[C@H]2[C@@H]3CC[C@H]4N(C)C(=O)C=C[C@]4(C)[C@H]3CC[C@]12C [Example 5]', 'type 1 5α-reductase (Homo sapiens)', 7.70),
  ('CN1C(=O)C=C[C@]2(C)[C@H]3CC[C@]4(C)[C@@H](C(=O)Nc5ccc(Cl)cc5)CC[C@H]4[C@@H]3CC[C@@H]12 [Example 1]', 'type 1 5α-reductase (Homo sapiens)', 7.40),
  ('CN1C(=O)C=C[C@]2(C)[C@H]3CC[C@]4(C)[C@@H](C(=O)Nc5ccccc5F)CC[C@H]4[C@@H]3CC[C@@H]12 [Example 3]', 'type 1 5α-reductase (Homo sapiens)', 7.70);

// below: pIC50 requested for another molecule
Entry CN1C(=O)C=C[C@]2(C)[C@H]3CC[C@]4(C)[C@@H](C(=O)Nc5ccccc5Cl)CC[C@H]4[C@@H]3CC[C@@H]12 [Example 6] ; pIC50 = 8.22
